# System: T1, cynomolgus PD-L1-His (Sino Biological, Cat. 90251-C08H) (cynomolgus, UniProt Q9NZQ7 19-238 (human entry))
# T1 construct: Bought protein; also called Cyno PD-L1; Cynomolgus PD-L1 ECD-His; not shown: His tag
# T1 sequence (Q9NZQ7 other isoform, or with tags, fused parts or gaps C08H C08H limits assumed): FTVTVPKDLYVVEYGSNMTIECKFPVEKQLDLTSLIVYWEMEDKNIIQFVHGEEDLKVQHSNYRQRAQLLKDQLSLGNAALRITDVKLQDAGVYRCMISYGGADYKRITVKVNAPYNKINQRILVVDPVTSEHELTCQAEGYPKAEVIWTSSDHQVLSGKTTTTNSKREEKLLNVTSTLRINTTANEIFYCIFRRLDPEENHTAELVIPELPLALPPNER
# Method Summary: BLI (Gator), cynomolgus PD-L1
Property: kon; scope: individual binders
Please respond with the number in M⁻¹ s⁻¹ and leave the unit unwritten.

74A9 (antibody, human IgG1, V domains shown) VH: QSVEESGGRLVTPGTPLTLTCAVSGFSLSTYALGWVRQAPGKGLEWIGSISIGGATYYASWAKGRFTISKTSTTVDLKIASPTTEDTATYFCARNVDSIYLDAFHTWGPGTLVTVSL VL: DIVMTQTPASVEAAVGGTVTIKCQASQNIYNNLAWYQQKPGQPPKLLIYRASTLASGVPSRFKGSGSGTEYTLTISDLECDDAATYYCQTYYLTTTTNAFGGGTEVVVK | 296000

Give the measured kon for 74F4 (antibody, human IgG1, V domains shown) VH: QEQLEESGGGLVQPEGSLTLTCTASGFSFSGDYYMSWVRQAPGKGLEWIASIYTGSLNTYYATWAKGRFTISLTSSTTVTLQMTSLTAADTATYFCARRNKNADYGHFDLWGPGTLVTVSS VL: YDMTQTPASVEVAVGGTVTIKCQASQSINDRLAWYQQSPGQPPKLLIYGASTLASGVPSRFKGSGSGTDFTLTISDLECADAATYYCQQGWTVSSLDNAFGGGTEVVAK
387000

State, in one line, measured kon of 55H3/76D6 (antibody, human IgG1, V domains shown) VH: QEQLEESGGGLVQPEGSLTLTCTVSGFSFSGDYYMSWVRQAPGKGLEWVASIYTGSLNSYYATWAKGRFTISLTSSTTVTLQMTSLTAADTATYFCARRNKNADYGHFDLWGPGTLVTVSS VL: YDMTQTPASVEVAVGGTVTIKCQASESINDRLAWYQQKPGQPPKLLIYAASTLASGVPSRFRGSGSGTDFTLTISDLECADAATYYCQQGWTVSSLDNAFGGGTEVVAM
307000

// Input: 69D10 (antibody, human IgG1, V domains shown) VH: QEQLEESGGGLVQPEGSLTLTCTASGFSFSGDWYMSWVRQAPGKGLEWIASIYSGSLNTYYATWAKGRFTVSLTSSTTVTLQMTSLTAADTATYFCARRNKNADYGHFDLWGPGTLVTVSS VL: YDMTQTPASVEVAVGGTVTIKCQASQSIGNALAWYQQKPGQPPKLLIYATSTLASGVPSRFKGSGSGTEFTLTISDLECGDAATYYCQQGWTVSSLDNAFGGGTEVVAK . Output its kon only.
428000

Using known records, supply kon for 56E5 (antibody, human IgG1, V domains shown) VH: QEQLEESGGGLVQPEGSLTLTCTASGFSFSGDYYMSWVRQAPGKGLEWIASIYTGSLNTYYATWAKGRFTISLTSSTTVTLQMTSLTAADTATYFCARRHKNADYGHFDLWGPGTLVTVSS VL: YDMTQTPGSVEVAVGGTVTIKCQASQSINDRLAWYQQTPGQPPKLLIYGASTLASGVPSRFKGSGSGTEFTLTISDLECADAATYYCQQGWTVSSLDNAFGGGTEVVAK
313000
